Sourced from the supplement of paper PMC10126150

Tested on: ATP;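 note: ATP exposure 15 min at 22 °C before imaging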
Test: switch fluorescence ratio, 500 uM ATP over buffer (Cy3 cluster intensity, sum of 5 cycles each) (fold (ratio)); higher = stronger signal-on switching upon ATP binding; sequences stand for … in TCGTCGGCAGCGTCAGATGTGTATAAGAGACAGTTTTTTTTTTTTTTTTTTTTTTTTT…TC
Conditions: aptamer strand: ATP DNA aptamer (quencher-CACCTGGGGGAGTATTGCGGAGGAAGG + anchor), 100 nM annealed; ATP concentration: 500 uM
quantity_kind: switch fluorescence ratio
// return just the number, without any unit appended

| residue_string | switch fluorescence ratio |
| --- | --- |
| ATTGGATTTT | 1 |
| TAATTAAATT | 0.977 |

// next item, switch fluorescence ratio requested
Q: Provide value of switch fluorescence ratio for this record tested with ATP: `CATAAGGTTG`
A: 0.991

###

System: ATP;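 note: ATP exposure 15 min at 22 °C before imaging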
Assay: switch fluorescence ratio, 500 uM ATP over buffer (Cy3 cluster intensity, sum of 5 cycles each) (fold (ratio)); higher = stronger signal-on switching upon ATP binding; sequences stand for … in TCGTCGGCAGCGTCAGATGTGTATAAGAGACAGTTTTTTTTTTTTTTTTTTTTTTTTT…TC
Settings: aptamer strand: ATP DNA aptamer (quencher-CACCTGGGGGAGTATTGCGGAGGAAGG + anchor), 100 nM annealed; ATP concentration: 500 uM
quantity_kind: switch fluorescence ratio
// return just the number, without any unit appended

# example entries with known answers
| residue_string | switch fluorescence ratio |
| --- | --- |
| TTCGTGCGGC | 1.06 |
| TATTTAGCGT | 1.01 |
| TCTAGTGTCG | 1.03 |
| AACTATATGG | 1.05 |
| TCGCGCCCTG | 1.03 |

// next item, switch fluorescence ratio requested
Q: Would you kindly share the measured switch fluorescence ratio for `ATCGTTTGCA` ?
A: 1.02

###

# switch fluorescence ratio per record follows
Test system: ATP;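 note: ATP exposure 15 min at 22 °C before imaging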
Experiment: switch fluorescence ratio, 500 uM ATP over buffer (Cy3 cluster intensity, sum of 5 cycles each) (fold (ratio)); higher = stronger signal-on switching upon ATP binding; sequences stand for … in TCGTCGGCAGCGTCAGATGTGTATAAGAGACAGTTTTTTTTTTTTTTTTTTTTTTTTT…TC
Conditions: aptamer strand: ATP DNA aptamer (quencher-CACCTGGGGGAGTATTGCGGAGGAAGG + anchor), 100 nM annealed; ATP concentration: 500 uM
// return just the number, without any unit appended

# example entries with known answers
| residue_string | endpoint_value |
| --- | --- |
| TTTCGGGTTT | 0.989 |
| GATGGAAAGG | 0.998 |
| TCGAATAATT | 1 |

Q: Would you kindly share the measured switch fluorescence ratio for `GATTTATTTT` ?
A: 0.994

Q: Quick one: `GGGGAGTGAG`
A: 0.986

Q: Quick one: `GGTTGAAGTT`
A: 0.986

Q: Quick one: `CTATTTTACT`
A: 0.987

Q: Quick one: `GATTTGATGT`
A: 1

Q: Quick one: `TGAGTGTGCT`
A: 0.972

###

Test system: ATP;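 note: ATP exposure 15 min at 22 °C before imaging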
Test: switch fluorescence ratio, 500 uM ATP over buffer (Cy3 cluster intensity, sum of 5 cycles each) (fold (ratio)); higher = stronger signal-on switching upon ATP binding; sequences stand for … in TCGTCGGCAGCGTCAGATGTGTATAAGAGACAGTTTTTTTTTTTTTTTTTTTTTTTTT…TC
Conditions: aptamer strand: ATP DNA aptamer (quencher-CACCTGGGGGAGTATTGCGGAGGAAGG + anchor), 100 nM annealed; ATP concentration: 500 uM
Returns one of Condition met or Condition not met; Condition met when switch fluorescence ratio is >= 1.

Q: Determine whether measured switch fluorescence ratio meets or exceeds 1 for `GTGGGAGGTT`
A: Condition not met

Q: Quick one: `GCATTTGAAG`
A: Condition not met

Q: Quick one: `TTCAGTAGAG`
A: Condition met

###

Test system: ATP;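 note: ATP exposure 15 min at 22 °C before imaging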
Test: switch fluorescence ratio, 500 uM ATP over buffer (Cy3 cluster intensity, sum of 5 cycles each) (fold (ratio)); higher = stronger signal-on switching upon ATP binding; sequences stand for … in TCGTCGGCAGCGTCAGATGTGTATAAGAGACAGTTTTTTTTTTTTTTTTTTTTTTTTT…TC
Conditions: aptamer strand: ATP DNA aptamer (quencher-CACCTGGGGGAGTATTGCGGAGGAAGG + anchor), 100 nM annealed; ATP concentration: 500 uM
# switch fluorescence ratio per record follows
// return just the number, without any unit appended

# example entries with known answers
| residue_string | target | switch fluorescence ratio |
| --- | --- | --- |
| CAGGGTGCTA | ATP | 1 |
| ATAGTTGGTG | ATP | 0.994 |

Q: Would you kindly share the measured switch fluorescence ratio for `GTTGCCTTGC` ?
A: 1.06

Q: Quick one: `GTTGGTAGGT`
A: 0.997

Q: Quick one: `TGACGCCGGG`
A: 0.98

Q: Quick one: `ATAGGATCAC`
A: 1.02

Q: Quick one: `GGAATGGGGC`
A: 0.993

Q: Quick one: `TATAAAGCAG`
A: 1.03

Q: Quick one: `TGGATTCTCT`
A: 0.997

Q: Quick one: `CAAGGGGGGG`
A: 0.99

Q: Quick one: `CGGACTTATT`
A: 0.969

Q: Quick one: `TATTTTGAAA`
A: 0.992

Q: Quick one: `GGTAACGGGG`
A: 1.06

Q: Quick one: `AAGGGATTGG`
A: 0.981

Q: Quick one: `GAGTCTGGGA`
A: 1.03

###

Tested on: ATP;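 note: ATP exposure 15 min at 22 °C before imaging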
Test: switch fluorescence ratio, 500 uM ATP over buffer (Cy3 cluster intensity, sum of 5 cycles each) (fold (ratio)); higher = stronger signal-on switching upon ATP binding; sequences stand for … in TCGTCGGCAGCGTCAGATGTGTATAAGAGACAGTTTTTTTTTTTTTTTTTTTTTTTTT…TC
Conditions: aptamer strand: ATP DNA aptamer (quencher-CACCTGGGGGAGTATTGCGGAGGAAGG + anchor), 100 nM annealed; ATP concentration: 500 uM
quantity_kind: switch fluorescence ratio
// return just the number, without any unit appended

# example entries with known answers
| residue_string | switch fluorescence ratio |
| --- | --- |
| TTTCGAGGAC | 0.983 |
| AAGGGGGTAA | 0.977 |
| GAGTCTGTGC | 1.02 |
| GGGAGTGAGG | 1.01 |
| TGGAAGGATT | 1.01 |
| CAAAGTAATT | 0.983 |
| AATATTACTA | 1.01 |
| AAATGGGCTG | 1 |
| GCGCCCGTGG | 1.01 |
| AGGGGGAAGA | 1 |

Q: Would you kindly share the measured switch fluorescence ratio for `AAATTTAGGT` ?
A: 1.01

Q: Quick one: `AGTATCTTTA`
A: 0.991

Q: Quick one: `GGGGGGTT`
A: 0.99

Q: Quick one: `CGGTGGAGCT`
A: 1.01

Q: Quick one: `TATCACATTT`
A: 1.02

###

Test system: ATP;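 note: ATP exposure 15 min at 22 °C before imaging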
Assay: switch fluorescence ratio, 500 uM ATP over buffer (Cy3 cluster intensity, sum of 5 cycles each) (fold (ratio)); higher = stronger signal-on switching upon ATP binding; sequences stand for … in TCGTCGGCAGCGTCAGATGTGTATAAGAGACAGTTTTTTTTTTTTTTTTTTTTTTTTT…TC
Details: aptamer strand: ATP DNA aptamer (quencher-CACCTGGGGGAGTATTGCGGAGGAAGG + anchor), 100 nM annealed; ATP concentration: 500 uM
# switch fluorescence ratio per record follows
// return just the number, without any unit appended

Q: Would you kindly share the measured switch fluorescence ratio for `TAATAAAAAA` ?
A: 0.977

Q: Quick one: `TCAAGTAGAG`
A: 0.99

###

# switch fluorescence ratio per record follows
Tested on: ATP;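 note: ATP exposure 15 min at 22 °C before imaging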
Test: switch fluorescence ratio, 500 uM ATP over buffer (Cy3 cluster intensity, sum of 5 cycles each) (fold (ratio)); higher = stronger signal-on switching upon ATP binding; sequences stand for … in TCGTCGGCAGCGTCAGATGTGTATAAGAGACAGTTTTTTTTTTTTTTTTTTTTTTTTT…TC
Settings: aptamer strand: ATP DNA aptamer (quencher-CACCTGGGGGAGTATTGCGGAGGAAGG + anchor), 100 nM annealed; ATP concentration: 500 uM
// return just the number, without any unit appended

| residue_string | switch fluorescence ratio |
| --- | --- |
| TTCACCACTT | 1.01 |
| ATGCAAAGGA | 1 |
| GTGTATCGGT | 0.994 |
| CTATATGGAC | 1.05 |
| GTAGTACAAG | 0.986 |

// next item, switch fluorescence ratio requested
Q: Provide value of switch fluorescence ratio for this record tested with ATP: `TTCAGACTAT`
A: 1.01

###

System: ATP;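 note: ATP exposure 15 min at 22 °C before imaging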
Test: switch fluorescence ratio, 500 uM ATP over buffer (Cy3 cluster intensity, sum of 5 cycles each) (fold (ratio)); higher = stronger signal-on switching upon ATP binding; sequences stand for … in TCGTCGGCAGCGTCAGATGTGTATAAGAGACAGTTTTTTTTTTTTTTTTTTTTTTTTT…TC
Details: aptamer strand: ATP DNA aptamer (quencher-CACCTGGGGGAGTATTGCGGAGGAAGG + anchor), 100 nM annealed; ATP concentration: 500 uM
quantity_kind: switch fluorescence ratio
// return just the number, without any unit appended

| residue_string | target | switch fluorescence ratio |
| --- | --- | --- |
| GAAAGGGTTA | ATP | 0.99 |
| TCTTAAAGCA | ATP | 1.02 |
| TCCGGGAGGG | ATP | 1.02 |
| TTTTCAAGAG | ATP | 1.02 |
| GAATTAGCTT | ATP | 0.983 |

Q: Would you kindly share the measured switch fluorescence ratio for `TAGTGGAAAA` ?
A: 1.02
